B1: glmS ribozyme (parent)
chain: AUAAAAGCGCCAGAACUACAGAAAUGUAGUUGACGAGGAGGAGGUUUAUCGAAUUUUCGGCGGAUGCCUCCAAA

Variants of: B1
Test: self-cleavage kobs at 40 uM GlcN6P; higher = faster cleavage; RNA array
Settings: with glucosamine-6-phosphate
Variants at the floor of the assay were thinned out.

var	self-cleavage kobs at 40 uM GlcN6P
C8G C50G C67A	0.000144 s⁻¹
G51C G60U	< 1e-05 s⁻¹
G35A G44U U65A C70G	< 1e-05 s⁻¹
A6G A52U	< 1e-05 s⁻¹
U46A C50G A53U C70G	0.000147 s⁻¹
G43U G44U	< 1e-05 s⁻¹
U30A G41A G60A C70U	< 1e-05 s⁻¹
C8A A15U A36G	< 1e-05 s⁻¹
C10A G37C C68U	< 1e-05 s⁻¹
G13A G40C	< 1e-05 s⁻¹
G29C U47A	4.95e-05 s⁻¹
G43U G63U	< 1e-05 s⁻¹
